# Test system: LPS-induced TNF-α release in human PBMCs (PDE4 inhibitory activity)
# assayMethodText: LPS-induced TNF-α release in peripheral blood mononuclear cells (PBMCs) assay
# Format: cell-based
# testParameters: PBMC, LPS 3 ng/ml, 18 hours, TNF-α by ELISA, mean ± 95% confidence limits, read-out: molar concentration producing 50% inhibition of LPS-induced TNF-α release (IC50)
pIC50: −log10 of the molar value.

molecule | experimentalSystem | pIC50
CS(=O)(=O)Nc1ccc(C(=O)OC(Cc2c(Cl)cncc2Cl)c2ccc(OC(F)F)c(OCC3CC3)c2)cc1OCC1CC1 (single isomer, unassigned; (-)) | LPS-induced TNF-α release in human PBMCs (PDE4 inhibitory activity) | 8.36 to 10.22
